# Dmax annotations
# tested_target: BRAF G466V (Homo sapiens, UniProt P15056, G466V)
# Construct: expressed in transfected cells
# Sequence (P15056 whole entry G466V): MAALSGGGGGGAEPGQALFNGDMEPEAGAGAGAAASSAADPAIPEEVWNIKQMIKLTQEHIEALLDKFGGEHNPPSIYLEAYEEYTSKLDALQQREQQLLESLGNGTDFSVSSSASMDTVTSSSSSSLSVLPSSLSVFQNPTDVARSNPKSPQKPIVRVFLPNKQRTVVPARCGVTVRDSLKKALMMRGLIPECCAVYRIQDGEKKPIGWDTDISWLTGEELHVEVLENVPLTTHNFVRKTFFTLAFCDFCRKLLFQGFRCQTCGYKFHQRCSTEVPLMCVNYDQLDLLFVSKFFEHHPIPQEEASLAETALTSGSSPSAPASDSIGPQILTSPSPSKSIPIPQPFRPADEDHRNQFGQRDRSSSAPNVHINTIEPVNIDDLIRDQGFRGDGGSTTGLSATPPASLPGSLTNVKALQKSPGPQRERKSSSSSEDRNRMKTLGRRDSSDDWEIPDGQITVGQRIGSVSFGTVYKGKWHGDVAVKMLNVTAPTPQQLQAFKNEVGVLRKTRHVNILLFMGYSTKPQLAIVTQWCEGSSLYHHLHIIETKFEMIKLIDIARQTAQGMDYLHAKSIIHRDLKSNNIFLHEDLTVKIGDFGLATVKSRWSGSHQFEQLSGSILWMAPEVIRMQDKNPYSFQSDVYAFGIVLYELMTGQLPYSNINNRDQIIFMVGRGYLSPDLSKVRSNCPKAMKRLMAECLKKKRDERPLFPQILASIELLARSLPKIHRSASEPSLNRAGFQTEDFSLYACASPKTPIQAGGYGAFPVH
# assay_overview: Cellular assay of target protein degradation, T-Rex 293 cells stably transfected with HA-BRAF G466V (HA immunofluorescence, high content imaging)
# Assay type: cell-based
# condition_context: maximum degradation observed, T-Rex 293 HA-BRAF G466V

[
  {
    "compound": "O=C1CCC(N2Cc3cc(C4CCN(C[C@@H]5CCN(c6ccc(-c7cnc8[nH]cc(C(=O)c9c(F)ccc(NS(=O)(=O)N%10CC[C@@H](F)C%10)c9F)c8c7)cc6)C(=O)C5)CC4)ccc3C2=O)C(=O)N1 (some centres unmarked) [Compound 312]",
    "meas_value": "> 70%"
  }
]

Proceed to the following item.
## Task Which Dmax is reported for this compound? O=C1CC[C@H](N2Cc3cc(N4CC5(CN(CC6CCN(c7ccc(-c8cnc9[nH]cc(C(=O)c%10c(F)ccc(NS(=O)(=O)N%11CC[C@@H](F)C%11)c%10F)c9c8)cc7)CC6)C5)C4)ccc3C2=O)C(=O)N1 [Compound 221]
## Result > 70%
